Entries with reported MIC on Staphylococcus aureus, USA 300
*1 amine or outer side, *2 acyl side, *3 side chain or, on linkers, in order; H or OH if unused. Where a SMILES comes first, the peptide text is derived from it. Bridges are numbered along the chain shown (N, C = ends). [ ]: non-standard residue; d: D form. The star is where a group is joined. Phe(3,5-F2) = N[C@@H](Cc1cc(F)cc(F)c1)C(=O)O; Morpholine(3S-CO) = O=C(O)[C@@H]1COCCN1; Pro(4R-Me) = C[C@H]1CN[C@H](C(=O)O)C1; NMeaThr = CN[C@H](C(=O)O)[C@H](C)O; Hyp = O=C(O)[C@@H]1C[C@@H](O)CN1; NH(4-Me-phenyl) = Cc1ccc(N*)cc1; aThr = C[C@H](O)[C@H](N)C(=O)O; X1 = N#Cc1cc(N*)ccc1F; CO = O=C([*:1])[*:2]
Answers are plain numbers, in µM.

{"compound": "C[C@@H]1C[C@H]2C(=O)O[C@@H](C)[C@H](NC(=O)[C@H](Cc3cc(F)cc(F)c3)NC(=O)Nc3ccc(F)c(C#N)c3)C(=O)N3C[C@H](O)C[C@H]3C(=O)N3CCOC[C@H]3C(=O)N[C@@H](C)C(=O)N2C1 [Compound 326] ({X1-CO}-[Phe(3,5-F2)][aThr][Hyp][Morpholine(3S-CO)]A[Pro(4R-Me)]; ester 2-C)", "recorded endpoint": "MIC", "measured number": 20}

# ---- query compound ----
Task: For the record Cc1ccc(NC(=O)N[C@@H](Cc2cc(F)cc(F)c2)C(=O)N[C@@H]2C(=O)N3CCC[C@H]3C(=O)N(C)[C@@H]([C@H](C)O)C(=O)N[C@@H](C)C(=O)N3C[C@H](C)C[C@H]3C(=O)O[C@H]2C)cc1 [Compound 208] ({NH(4-Me-phenyl)-CO}-[Phe(3,5-F2)][aThr]P[NMeaThr]A[Pro(4R-Me)]; ester 2-C) , what value of MIC is listed for Staphylococcus aureus, USA 300?
Result: 0.1

###

- Tested on: E. coli K12ΔtolC
- measurement notes: Minimal inhibitory concentration assay (microbroth dilution)
- Type: cell-based
recorded endpoint: Minimal Inhibitory Concentrations E. coli K12ΔtolC (µM)
One number for each entry, in µM.

Previously resolved entries follow.
{"molecule": "C[C@@H]1C[C@H]2C(=O)OC[C@H](NC(=O)[C@H](Cc3ccccc3)NC(=O)Nc3cccc(Cl)c3)C(=O)N3CCC[C@H]3C(=O)N3CCCC[C@H]3C(=O)N[C@@H](C)C(=O)N2C1", "endpoint unit": "µM", "measured number": 25}
{"molecule": "O=C(N[C@H](CO)[C@H](O)c1ccc([N+](=O)[O-])cc1)C(Cl)Cl [Chloroamphenicol, chloramphenicol, reference compound]", "endpoint unit": "µM", "measured number": 0.78}
{"molecule": "C[C@@H]1C[C@H]2C(=O)OC[C@H](NC(=O)[C@H](Cc3ccccc3)NC(=O)Nc3ccccc3)C(=O)N3CCC[C@H]3C(=O)N3CCCC[C@H]3C(=O)N[C@@H](C)C(=O)N2C1", "endpoint unit": "µM", "measured number": 200}
{"molecule": "C[C@@H]1C[C@H]2C(=O)OC[C@H](NC(=O)[C@H](Cc3ccccc3)NC(=O)Nc3ccc(Cl)cc3)C(=O)N3CCC[C@H]3C(=O)N3CCCC[C@H]3C(=O)N[C@@H](C)C(=O)N2C1", "endpoint unit": "µM", "measured number": 25}
{"molecule": "CCc1ccc(NC(=O)N[C@@H](Cc2ccccc2)C(=O)N[C@H]2COC(=O)[C@@H]3C[C@@H](C)CN3C(=O)[C@H](C)NC(=O)[C@@H]3CCCCN3C(=O)[C@@H]3CCCN3C2=O)cc1", "endpoint unit": "µM", "measured number": 25}
{"molecule": "C[C@@H]1C[C@H]2C(=O)OC[C@H](NC(=O)[C@H](Cc3ccccc3)NC(=O)Nc3ccc(OC(F)(F)F)cc3)C(=O)N3CCC[C@H]3C(=O)N3CCCC[C@H]3C(=O)N[C@@H](C)C(=O)N2C1", "endpoint unit": "µM", "measured number": 12.5}
{"molecule": "COc1ccc(NC(=O)N[C@@H](Cc2ccccc2)C(=O)N[C@H]2COC(=O)[C@@H]3C[C@@H](C)CN3C(=O)[C@H](C)NC(=O)[C@@H]3CCCCN3C(=O)[C@@H]3CCCN3C2=O)cc1", "endpoint unit": "µM", "measured number": 50}
{"molecule": "NC[C@H]1O[C@H](O[C@H]2[C@H](O)[C@@H](O[C@H]3O[C@H](CO)[C@@H](O)[C@H](N)[C@H]3O)[C@H](N)C[C@@H]2N)[C@H](O)[C@@H](O)[C@@H]1O [Kanamycin, kanamycin, reference compound]", "endpoint unit": "µM", "measured number": 0.4}

Could you report Minimal Inhibitory Concentrations E. coli K12ΔtolC for every entry in the following list?
1. C[C@@H]1C[C@H]2C(=O)OC[C@H](NC(=O)[C@H](Cc3ccccc3)NC(=O)Nc3ccc(N(C)C)cc3)C(=O)N3CCC[C@H]3C(=O)N3CCCC[C@H]3C(=O)N[C@@H](C)C(=O)N2C1
2. COc1cccc(NC(=O)N[C@@H](Cc2ccccc2)C(=O)N[C@H]2COC(=O)[C@@H]3C[C@@H](C)CN3C(=O)[C@H](C)NC(=O)[C@@H]3CCCCN3C(=O)[C@@H]3CCCN3C2=O)c1
3. C[C@@H]1C[C@H]2C(=O)OC[C@H](NC(=O)[C@H](Cc3ccccc3)NC(=O)Nc3ccccc3Cl)C(=O)N3CCC[C@H]3C(=O)N3CCCC[C@H]3C(=O)N[C@@H](C)C(=O)N2C1

Result:
50
200
200
